// data source = patent US9932309B2

biological target: mTGR5 (Mus musculus); construct: expressed in transfected cells; host or cells: HEK293 cells, transiently co-transfected with the pCRE TA-Luciferase reporter; assay: TGR5/CRE Luciferase Assay (mTGR5); type: cell-based; settings: percentage of the 10 μM LCA value; HEK 293 cells transfected with mTGR5
Sequence (Q80SS6 whole entry): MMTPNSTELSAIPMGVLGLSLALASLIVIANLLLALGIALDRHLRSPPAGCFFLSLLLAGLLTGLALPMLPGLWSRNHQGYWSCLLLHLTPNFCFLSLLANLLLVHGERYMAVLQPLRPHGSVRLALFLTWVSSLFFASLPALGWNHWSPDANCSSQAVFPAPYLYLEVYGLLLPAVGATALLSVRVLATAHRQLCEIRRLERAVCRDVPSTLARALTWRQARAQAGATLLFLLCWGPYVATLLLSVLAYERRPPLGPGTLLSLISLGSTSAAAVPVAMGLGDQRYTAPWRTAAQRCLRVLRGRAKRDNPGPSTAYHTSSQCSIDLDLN
A collection of compounds and their measured mTGR5 % trans
A bare number is not enough; add the unit after it.

[ask] State the recorded mTGR5 % trans for this entry: COc1ccccc1COC(=O)C1=C(C)N(CCO)C(=O)CC1c1ccc(Cl)cc1 (stereo not shown) [Compound 65]
[reply] 107%

[ask] And then COCCN1C(=O)CC(c2ccc(Cl)cc2)C(C(=O)OCC(=O)c2ccccc2)=C1C (stereo not shown) [Example 112] , what is it?
[reply] 46%

[ask] // same read-out, input: COCCN1C(=O)CC(c2ccc(Cl)cc2)C(C(=O)N2CCCc3ccccc32)=C1C (stereo not shown) [Example 77]
[reply] 73%

[ask] COc1ccc(COC(=O)C2=C(C)N(C)C(=O)CC2c2ccc(Cl)cc2)cc1OC (stereo not shown) [Example 83] ?
[reply] 88%

[ask] Same lookup for CC1=C(C(=O)OCc2ccccc2)C(c2ccc(Cl)cc2)CC(=O)N1CC(N)=O (stereo not shown) [Compound 60] , please.
[reply] 32%

[ask] Next up: COCCN1C(=O)CC(c2ccc(Cl)cc2)C(C(=O)OCc2ccncc2)=C1C (stereo not shown) [Example 107]
[reply] 83%

[ask] How about CC1=C(C(=O)OCc2c(F)cccc2F)C(c2ccc(Cl)cc2)CC(=O)N1C (stereo not shown) [Example 82] ?
[reply] 59%
